test: Inhibition of Mycobacterium marinum recombinant arylamine N-acetyltransferase-mediated acetyl coA hydrolysis by DTNB-based spectrophotometric analysis
This section presents compounds with their documented IC50 values.
API: value field is a number in µM; no unit string.

[Q] Tell me IC50 reported for COc1ccc(-c2cc(-c3cc(OC)ccc3O)[nH]n2)cc1
[A] 18.5

[Q] Tell me IC50 reported for COc1ccc(O)c(-c2cc(-c3ccccc3)[nH]n2)c1
[A] 12.9

[Q] Tell me IC50 reported for COc1cccc(-c2cc(-c3ccc(F)cc3)[nH]n2)c1
[A] 17.6

For the next question, use this compound.
[Q] Tell me IC50 reported for COc1ccc(OC)c(-c2cc(-c3ccccc3)[nH]n2)c1
[A] 11.7

====

assay: Inhibition of Pseudomonas aeruginosa arylamine N-acetyltransferase
MEASURE: IC50 (µM)
API: value field is a number in µM; no unit string.

[Q] Tell me IC50 reported for COc1ccc(-c2cc(-c3cc(OC)ccc3O)[nH]n2)cc1
[A] 9.7

====

test: Inhibition of Mycobacterium marinum recombinant arylamine N-acetyltransferase-mediated acetyl coA hydrolysis at 30 uM by DTNB-based spectrophotometric analysis
MEASURE: inhibition (%)
API: value field is a number in %; no unit string.

[Q] Tell me inhibition reported for COc1ccc(O)c(-c2cc(-c3ccccc3)[nH]n2)c1
[A] 53.9

[Q] Tell me inhibition reported for c1ccc(-c2cc(-c3ccccc3)[nH]n2)cc1
[A] 45.2

[Q] Tell me inhibition reported for Fc1ccc(-c2cc(-c3cc(F)ccc3F)n[nH]2)cc1
[A] 29.7

For the next question, use this compound.
[Q] Tell me inhibition reported for COc1ccc(-c2cc(-c3cc(OC)ccc3O)[nH]n2)cc1
[A] 65.8

====

test: Inhibition of Mycobacterium marinum recombinant arylamine N-acetyltransferase-mediated acetyl coA hydrolysis by DTNB-based spectrophotometric analysis
pIC50: −log10 of the molar value.
MEASURE: pIC50

These recorded examples may help you get a feel for the data.
[Q] Tell me pIC50 reported for Fc1ccc(F)c(-c2cc(-c3ccccc3)[nH]n2)c1
[A] 4.73

[Q] Tell me pIC50 reported for Oc1ccc(F)cc1-c1cc(-c2ccc(F)cc2)[nH]n1
[A] < 4.52

[Q] Tell me pIC50 reported for COc1ccc(-c2cc(-c3ccccc3)n[nH]2)cc1
[A] < 4.52

[Q] Tell me pIC50 reported for c1ccc(-c2cc(-c3ccccc3)[nH]n2)cc1
[A] < 4.52

[Q] Tell me pIC50 reported for COc1ccc(-c2cc(-c3cc(F)ccc3O)n[nH]2)cc1
[A] < 4.52

For the next question, use this molecule.
[Q] Tell me pIC50 reported for COc1ccc(O)c(-c2cc(-c3ccc(F)cc3)[nH]n2)c1
[A] 4.67

====

assay: Competitive inhibition of Mycobacterium marinum recombinant arylamine N-acetyltransferase-mediated acetyl coA hydrolysis by DTNB-based spectrophotometric analysis
MEASURE: Ki

[Q] Tell me Ki reported for COc1ccc(-c2cc(-c3cc(OC)ccc3O)[nH]n2)cc1
[A] 23.2 µM

====

assay: Inhibition of Mycobacterium marinum recombinant arylamine N-acetyltransferase-mediated acetyl coA hydrolysis at 30 uM by DTNB-based spectrophotometric analysis
This section presents molecules with their documented inhibition values.
API: value field is a number in %; no unit string.

[Q] Tell me inhibition reported for COc1ccc(-c2cc(-c3ccccc3)n[nH]2)cc1
[A] 26.5

Next:
[Q] Tell me inhibition reported for COc1ccc(OC)c(-c2cc(-c3ccccc3)[nH]n2)c1
[A] 50.7

[Q] Tell me inhibition reported for COc1ccc(-c2cc(-c3cc(F)ccc3F)n[nH]2)cc1
[A] 18.9
